- targetDesc: CYP2C19 (Homo sapiens, UniProt P33261)
- Sequence (P33261 whole entry): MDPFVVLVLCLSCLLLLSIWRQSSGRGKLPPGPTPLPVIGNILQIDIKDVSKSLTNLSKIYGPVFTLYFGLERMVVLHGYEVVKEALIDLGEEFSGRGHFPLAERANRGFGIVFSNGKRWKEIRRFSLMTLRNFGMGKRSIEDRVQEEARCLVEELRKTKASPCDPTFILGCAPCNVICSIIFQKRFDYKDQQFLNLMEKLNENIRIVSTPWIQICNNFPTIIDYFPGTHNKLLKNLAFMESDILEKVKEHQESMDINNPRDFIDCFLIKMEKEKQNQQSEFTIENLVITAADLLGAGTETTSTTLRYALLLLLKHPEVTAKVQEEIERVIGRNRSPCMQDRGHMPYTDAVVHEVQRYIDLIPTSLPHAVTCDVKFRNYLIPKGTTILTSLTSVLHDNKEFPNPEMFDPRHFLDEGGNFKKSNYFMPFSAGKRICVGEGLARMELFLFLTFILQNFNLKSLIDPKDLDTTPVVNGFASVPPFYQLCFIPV
- assayText: Inhibition of CYP2C19 in human liver microsomes at 10 uM using mephenytoin substrate preincubated for 5 mins before NADPH addition and measured after 20 mins post NADPH addition
- Format: ADME
- experimentalParameters: probe mephenytoin
quantityMeasured: inhibition at 20 min, 10 µM (%)
One number for each entry, in %.

Nc1ccc(-c2csc(=O)[nH]2)cc1S(=O)(=O)NC1CCCC1 | 57
CNc1cc(-c2csc(=O)[nH]2)cc(S(=O)(=O)NC2CCCC2)c1C | 17

Please give inhibition at 20 min, 10 µM for each item listed below.
1. O=C(Nc1cc(-c2csc(=O)[nH]2)cc(S(=O)(=O)NC2CCCC2)c1)C1CC1
2. COc1cc2c(cc1-c1c(C)noc1C)ncc1[nH]c(=O)n([C@H](C)c3ccccn3)c12
3. Cc1ccc(-c2csc(=O)[nH]2)cc1S(=O)(=O)NC1CCCC1
4. O=C(Nc1cc(-c2csc(=O)[nH]2)cc(S(=O)(=O)NC2CCCC2)c1)c1cccs1
5. Cc1sc2c(c1C)C(c1ccc(Cl)cc1)=N[C@@H](CC(=O)OC(C)(C)C)c1nnc(C)n1-2
6. COc1ccc(-c2csc(=O)[nH]2)cc1S(=O)(=O)NC1CCCC1
7. Cc1c(Br)cc(-c2csc(=O)[nH]2)cc1S(=O)(=O)NC1CCCC1
8. Cc1c(N)cc(-c2csc(=O)[nH]2)cc1S(=O)(=O)NC1CCCC1

1: 32; 2: 19; 3: 45; 4: 46; 5: 18; 6: 26; 7: 28; 8: 3

###

- targetDesc: Histone acetyltransferase p300 (Homo sapiens) (UniProt Q09472)
- Sequence (Q09472 whole entry): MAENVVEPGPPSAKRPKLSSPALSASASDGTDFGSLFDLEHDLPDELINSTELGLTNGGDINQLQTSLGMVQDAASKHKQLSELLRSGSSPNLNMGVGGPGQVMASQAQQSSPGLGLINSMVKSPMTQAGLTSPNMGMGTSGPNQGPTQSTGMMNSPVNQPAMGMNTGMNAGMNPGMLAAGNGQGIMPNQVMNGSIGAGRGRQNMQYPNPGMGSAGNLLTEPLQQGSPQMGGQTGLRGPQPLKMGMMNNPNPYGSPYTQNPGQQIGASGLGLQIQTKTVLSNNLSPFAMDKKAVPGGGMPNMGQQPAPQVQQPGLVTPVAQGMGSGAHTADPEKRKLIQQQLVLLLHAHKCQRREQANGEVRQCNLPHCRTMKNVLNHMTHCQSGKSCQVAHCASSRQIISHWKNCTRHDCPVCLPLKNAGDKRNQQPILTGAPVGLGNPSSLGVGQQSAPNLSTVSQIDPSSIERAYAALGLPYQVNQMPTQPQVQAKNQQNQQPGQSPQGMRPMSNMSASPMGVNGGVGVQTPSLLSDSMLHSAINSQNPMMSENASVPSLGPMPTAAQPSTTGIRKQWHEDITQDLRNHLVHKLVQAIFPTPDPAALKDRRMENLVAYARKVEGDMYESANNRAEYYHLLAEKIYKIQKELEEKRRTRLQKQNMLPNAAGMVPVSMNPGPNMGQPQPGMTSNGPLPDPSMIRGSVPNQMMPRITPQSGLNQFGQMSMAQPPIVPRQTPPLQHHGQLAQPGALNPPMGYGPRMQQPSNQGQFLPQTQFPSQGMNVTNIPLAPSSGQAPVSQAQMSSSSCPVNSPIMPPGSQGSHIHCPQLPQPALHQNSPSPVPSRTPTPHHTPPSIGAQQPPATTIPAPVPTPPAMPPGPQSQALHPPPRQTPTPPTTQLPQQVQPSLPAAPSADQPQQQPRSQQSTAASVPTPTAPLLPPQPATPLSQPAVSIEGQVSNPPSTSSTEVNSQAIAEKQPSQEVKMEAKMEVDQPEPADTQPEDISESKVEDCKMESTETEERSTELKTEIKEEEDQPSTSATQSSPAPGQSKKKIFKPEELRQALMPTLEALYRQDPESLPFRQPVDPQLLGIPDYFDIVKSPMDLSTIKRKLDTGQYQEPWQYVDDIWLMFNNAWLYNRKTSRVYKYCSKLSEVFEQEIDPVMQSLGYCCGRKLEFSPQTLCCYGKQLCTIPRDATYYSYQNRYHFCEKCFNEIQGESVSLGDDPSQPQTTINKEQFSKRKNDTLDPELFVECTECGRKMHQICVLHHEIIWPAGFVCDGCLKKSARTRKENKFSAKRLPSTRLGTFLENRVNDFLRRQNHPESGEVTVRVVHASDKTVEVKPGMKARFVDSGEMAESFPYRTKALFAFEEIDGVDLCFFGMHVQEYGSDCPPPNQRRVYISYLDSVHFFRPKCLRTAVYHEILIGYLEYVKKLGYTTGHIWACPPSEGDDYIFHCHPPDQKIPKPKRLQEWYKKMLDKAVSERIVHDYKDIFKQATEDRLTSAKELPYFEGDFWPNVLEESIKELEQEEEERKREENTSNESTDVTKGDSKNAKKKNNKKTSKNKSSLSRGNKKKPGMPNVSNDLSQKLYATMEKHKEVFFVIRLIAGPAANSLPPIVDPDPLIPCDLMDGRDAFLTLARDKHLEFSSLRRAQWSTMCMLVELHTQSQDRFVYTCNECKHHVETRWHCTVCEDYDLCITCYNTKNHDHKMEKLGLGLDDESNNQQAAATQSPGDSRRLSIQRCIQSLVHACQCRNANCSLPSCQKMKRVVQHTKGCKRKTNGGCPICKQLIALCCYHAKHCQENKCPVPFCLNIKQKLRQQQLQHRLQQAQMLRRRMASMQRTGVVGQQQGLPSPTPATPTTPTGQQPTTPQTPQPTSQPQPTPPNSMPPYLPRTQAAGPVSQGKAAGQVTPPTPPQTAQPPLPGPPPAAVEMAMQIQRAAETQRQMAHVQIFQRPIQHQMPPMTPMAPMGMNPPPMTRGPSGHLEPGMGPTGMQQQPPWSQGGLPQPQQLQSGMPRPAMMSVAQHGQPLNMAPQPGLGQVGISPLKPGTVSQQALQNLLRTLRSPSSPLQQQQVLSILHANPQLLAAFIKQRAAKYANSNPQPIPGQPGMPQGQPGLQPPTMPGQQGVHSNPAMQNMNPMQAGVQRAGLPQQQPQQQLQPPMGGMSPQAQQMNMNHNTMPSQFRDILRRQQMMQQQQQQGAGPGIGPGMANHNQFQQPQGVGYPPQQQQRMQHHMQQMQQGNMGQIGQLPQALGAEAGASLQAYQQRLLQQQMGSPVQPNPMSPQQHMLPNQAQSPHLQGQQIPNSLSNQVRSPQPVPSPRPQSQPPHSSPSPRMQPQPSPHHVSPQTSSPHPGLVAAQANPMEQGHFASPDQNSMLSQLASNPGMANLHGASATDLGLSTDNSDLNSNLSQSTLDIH
- assayText: Binding affinity to EP300 (unknown origin) assessed as increase in protein melting temperature at 50 umol by real-time PCR system based thermal shift assay
ΔTm strictly less than -0.08 °C = Yes. Otherwise No.

COc1ccc(-c2csc(=O)[nH]2)cc1S(=O)(=O)NC1CCCC1 | No
Cc1c(Br)cc(-c2csc(=O)[nH]2)cc1S(=O)(=O)NC1CCCC1 | Yes
O=C(Nc1cc(-c2csc(=O)[nH]2)cc(S(=O)(=O)NC2CCCC2)c1)C1CC1 | Yes
Cc1ccc(-c2csc(=O)[nH]2)cc1S(=O)(=O)NC1CCCC1 | Yes

Could you now consider this next compound?
ΔTm under -0.08 °C? Item: Cc1c(N)cc(-c2csc(=O)[nH]2)cc1S(=O)(=O)NC1CCCC1
No

###

- System: HT-29
- assayText: Growth inhibition of human HT-29 cells after 72 hrs by SRB assay
- Assay type: functional, cell-based
- experimentalParameters: HT-29, 72 h
quantityMeasured: pIC50
Numbers only, as −log10 of the molar value.

Please give pIC50 for each item listed below.
1. O=C(Nc1ccc(-c2csc(=O)[nH]2)cc1S(=O)(=O)NC1CCCC1)C1CC1
2. Cc1c(NC(=O)c2cccs2)cc(-c2csc(=O)[nH]2)cc1S(=O)(=O)NC1CCCC1
3. CCCC(=O)Nc1cc(-c2csc(=O)[nH]2)cc(S(=O)(=O)NC2CCCC2)c1C

4.89
4.70
4.63

###

- targetDesc: CYP2C9 (Homo sapiens, UniProt P11712)
- Sequence (P11712 whole entry): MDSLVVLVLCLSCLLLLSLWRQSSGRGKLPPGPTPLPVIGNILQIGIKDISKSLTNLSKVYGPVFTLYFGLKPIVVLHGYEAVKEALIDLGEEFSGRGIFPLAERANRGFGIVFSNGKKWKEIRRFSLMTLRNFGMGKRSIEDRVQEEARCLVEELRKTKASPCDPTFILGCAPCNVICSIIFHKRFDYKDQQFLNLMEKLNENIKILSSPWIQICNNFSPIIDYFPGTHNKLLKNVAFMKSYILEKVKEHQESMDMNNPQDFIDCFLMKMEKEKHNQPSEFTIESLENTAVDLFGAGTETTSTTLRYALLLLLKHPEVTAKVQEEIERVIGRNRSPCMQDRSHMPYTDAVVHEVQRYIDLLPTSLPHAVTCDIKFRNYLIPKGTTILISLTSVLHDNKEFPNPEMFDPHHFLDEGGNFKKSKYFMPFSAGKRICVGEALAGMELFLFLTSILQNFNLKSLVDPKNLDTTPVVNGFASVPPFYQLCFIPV
- assayText: Inhibition of CYP2C9 in human liver microsomes at 10 uM using diclofenac substrate preincubated for 5 mins before NADPH addition and measured after 20 mins post NADPH addition
- Format: ADME
- experimentalParameters: liver microsomes, probe diclofenac
Binary call on inhibition at 20 min, 10 µM: met from 20% upward, not met beneath that.

Answered examples (4):
Cc1sc2c(c1C)C(c1ccc(Cl)cc1)=N[C@@H](CC(=O)OC(C)(C)C)c1nnc(C)n1-2 | not met
O=C(Nc1cc(-c2csc(=O)[nH]2)cc(S(=O)(=O)NC2CCCC2)c1)c1cccs1 | met
COc1cc2c(cc1-c1c(C)noc1C)ncc1[nH]c(=O)n([C@H](C)c3ccccn3)c12 | met
COc1ccc(-c2csc(=O)[nH]2)cc1S(=O)(=O)NC1CCCC1 | not met

State whether the measured inhibition at 20 min, 10 µM reaches 20%, counting equality as reaching it, for O=C(Nc1cc(-c2csc(=O)[nH]2)cc(S(=O)(=O)NC2CCCC2)c1)C1CC1
not met

State whether the measured inhibition at 20 min, 10 µM reaches 20%, counting equality as reaching it, for Nc1ccc(-c2csc(=O)[nH]2)cc1S(=O)(=O)NC1CCCC1
met
